assay: human hepatoma cell viability loss – ATP luminescence, cytotoxicity control for P. falciparum antimalarial project, primary screen (AID 2303); settings: HepG2 viability, 24-48 h, at 10 µM;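 further: 0% = DMSO wells and 100% = digitonin-killed cells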
Activity calls are given as the source filed them.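 How the source made its calls: active means inhibition above 50%; inactive means the rest.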
Assign a class; possible classes are yes (1) for active, no (0) for inactive

CCN(CC)CCN(Cc1ccc(-c2ccc(C(F)(F)F)cc2)cc1)C(=O)Cn1c(CCc2ccc(F)cc2)nc(=O)c2sccc21    yes (1)
O=C1C(c2ccccc2)=C(Nc2cccc(OC(F)(F)C(F)F)c2)c2ccccc21    no (0)
CC(C)c1ccc(CN2CCC(CNC(=O)c3cc(-c4ccc(N(C)C)cc4)cs3)C2)cc1 (configuration not stated)    no (0)
CN(C)Cc1ccc(-c2cccc(Nc3nccc(NCC(O)c4ccccc4)n3)c2)cc1 (configuration not stated)    yes (1)
Oc1c(Cl)cc(Nc2nccc(Nc3ccc(Oc4ccccc4)cc3)n2)cc1Cl    no (0)
Cc1cc(I)ccc1Nc1nc2nonc2nc1Nc1ccc(I)cc1C    yes (1)
Cc1ccc(/C=C/C(=O)NCCCCCN2CCN(C(=O)Nc3ccc(Cl)c(C(F)(F)F)c3)CC2)cc1    no (0)
COc1cccc(OC2CCN(C(=O)c3ccc(-c4ccc(N5CCCC5=O)cc4C)cc3)CC2)c1    no (0)
Cc1noc(-c2ccc3c(c2)CCN(CCC2CCC(NC(=O)/C=C/c4ccc(F)cc4)CC2)CC3)n1 (configuration not stated)    no (0)
NC1=NC(c2ccccc2)N(c2ccccc2)C(N)=N1 (configuration not stated)    no (0)

**Query** Write down the call the test reported for this molecule. Item: Oc1cc(Nc2ccnc3ccc(I)cc23)c(F)cc1Cl
**Result** no (0)

**Query** Write down the call the test reported for this molecule. Item: CCCCOc1c(CCNCCCCNCCc2cc(F)c3ccccc3c2OCCCC)cc(F)c2ccccc12
**Result** yes (1)

**Query** Write down the call the test reported for this molecule. Item: CC[C@H](NC(=O)c1c(CN2CCC(N3CCCCC3)CC2)c(-c2ccccc2)nc2cc(O)ccc12)c1ccccc1
**Result** no (0)

**Query** Write down the call the test reported for this molecule. Item: Cc1ccc(NC(=O)c2ccc(N3CCC(c4ccccc4C)CC3)nc2)cc1
**Result** no (0)

**Query** Write down the call the test reported for this molecule. Item: O=C(Nc1cccc(C(F)(F)F)c1)Nc1ccc(F)c([N+](=O)[O-])c1
**Result** no (0)

**Query** Write down the call the test reported for this molecule. Item: C=C[C@]1(C)C[C@@H](OC(=O)NC(=O)C2CCN(C(=O)CSc3ccccc3)CC2)[C@]2(C)[C@H](C)CC[C@]3(CCC(=O)[C@H]32)[C@@H](C)[C@@H]1O
**Result** no (0)

**Query** Write down the call the test reported for this molecule. Item: O=C(/C=C/c1ccc(Cl)c(Cl)c1)NC1CCC(CN2CCC(c3cc4ccccc4[nH]3)CC2)CC1 (configuration not stated)
**Result** no (0)

**Query** Write down the call the test reported for this molecule. Item: CCn1cc2c3c(cc(C(=O)N[C@@H](Cc4ccccc4)[C@H](O)CNCc4cccc(OC)c4)cc31)N(C)S(=O)(=O)CC2
**Result** no (0)

**Query** Write down the call the test reported for this molecule. Item: CCC[C@@H]([C@@H](CC1CCCCC1)C(=O)N[C@H](C(=O)Nc1nccs1)[C@H](C)O)N(O)C=O
**Result** no (0)

**Query** Write down the call the test reported for this molecule. Item: CS(=O)(=O)c1cccc(-c2cnc(N)c3cc(-c4ccc5c(c4)OCO5)ccc23)c1
**Result** no (0)

**Query** Write down the call the test reported for this molecule. Item: COc1cccc(NC(=O)Nc2ccc(Nc3nc(C)cc(N(C)C)n3)cc2)c1
**Result** no (0)

**Query** Write down the call the test reported for this molecule. Item: CSc1ccc2ccccc2c1CNCCCCCCNCc1c(SC)ccc2ccccc12
**Result** yes (1)

**Query** Write down the call the test reported for this molecule. Item: O=C(Cc1cnc[nH]1)Nc1cccc(-c2cccc(-c3nc4ccc(C(F)(F)F)cc4[nH]3)c2)c1
**Result** no (0)
